# Test system: Jurkat T-cell acute lymphoblastic leukemia cells
# testMethodNotes: Jurkat proliferation assay
# Type: cell-based, human
# details: Homo sapiens, Jurkat, 72 h, read-out: IC50 Jurkat cell proliferation
readoutType: IC50 (nM)
Please state the figure in nM; there is no need to write the unit.

Let me know recorded IC50 for CN(C)C/C=C/C(=O)Nc1ccc(C(=O)N2CCC[C@@H](Nc3ncc(Cl)c(-c4c[nH]c5ccccc45)n3)C2)cc1 , thanks.
50
